Measured pKi by item
# tested system: human H3R (Homo sapiens)
# Sequence (Q9Y5N1 whole entry): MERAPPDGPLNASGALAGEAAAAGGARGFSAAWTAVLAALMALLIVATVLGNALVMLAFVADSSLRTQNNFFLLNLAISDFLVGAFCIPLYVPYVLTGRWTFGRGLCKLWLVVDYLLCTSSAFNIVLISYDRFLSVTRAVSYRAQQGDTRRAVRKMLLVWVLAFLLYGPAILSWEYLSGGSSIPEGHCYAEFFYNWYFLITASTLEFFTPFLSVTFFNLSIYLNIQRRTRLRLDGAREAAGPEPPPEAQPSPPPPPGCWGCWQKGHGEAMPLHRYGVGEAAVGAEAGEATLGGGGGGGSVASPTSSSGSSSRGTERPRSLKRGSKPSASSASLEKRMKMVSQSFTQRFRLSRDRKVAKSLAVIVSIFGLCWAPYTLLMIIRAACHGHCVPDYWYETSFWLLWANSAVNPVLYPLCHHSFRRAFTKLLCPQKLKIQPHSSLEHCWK
Conceptually, pKi converts a concentration in mol/L into minus its log10.

> print(dat)
                                   molecule  readout.type  measured
1  O=C(c1nc2ccc(OCCCCCN3CCCC3)cc2s1)N1CCCC1           pKi      7.44
2  O=C(c1nc2ccc(OCCCN3CCCCC3)cc2s1)N1CCCCC1           pKi      7.13
3  O=C(c1nc2ccc(OCCCCCN3CCCCC3)cc2s1)N1CCCCC1           pKi      7.17
4  O=C(c1nc2ccc(OCCCN3CCCCCC3)cc2s1)N1CCCCCC1           pKi      7.92
5  CC1CCCN(CCCOc2ccc3nc(C(=O)N4CCCC(C)C4)sc3c2)C1 (stereo not drawn)           pKi      7.19
6  O=C(NCCN1CCCC1)c1nc2ccc(OCCCNCCN3CCCC3)cc2s1           pKi      7.28

We now examine a further molecule.
Ask: Under human H3R (Homo sapiens): report pKi of `O=C(c1nc2ccc(OCCN3CCCC3)cc2s1)N1CCCC1` .
Result: 6.19

---

# tested system: human AChE (Homo sapiens)
# Sequence (P22303 32-614): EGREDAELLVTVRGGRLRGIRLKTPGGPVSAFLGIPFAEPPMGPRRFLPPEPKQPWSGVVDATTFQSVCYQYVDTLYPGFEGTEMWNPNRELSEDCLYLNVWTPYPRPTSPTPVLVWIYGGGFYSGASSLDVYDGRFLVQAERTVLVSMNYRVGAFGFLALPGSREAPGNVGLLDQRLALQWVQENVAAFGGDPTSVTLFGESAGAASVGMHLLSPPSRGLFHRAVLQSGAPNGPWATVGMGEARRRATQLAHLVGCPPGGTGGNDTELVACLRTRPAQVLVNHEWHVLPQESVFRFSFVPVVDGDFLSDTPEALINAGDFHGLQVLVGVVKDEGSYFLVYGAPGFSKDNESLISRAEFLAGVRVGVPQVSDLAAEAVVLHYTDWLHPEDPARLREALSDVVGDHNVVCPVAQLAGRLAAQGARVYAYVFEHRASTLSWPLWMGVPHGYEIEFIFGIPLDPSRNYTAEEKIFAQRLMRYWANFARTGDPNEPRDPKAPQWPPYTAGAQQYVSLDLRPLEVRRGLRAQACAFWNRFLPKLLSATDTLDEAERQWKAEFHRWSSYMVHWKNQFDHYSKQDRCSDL
# method description: Inhibition of AChE
# Format: biochemical
# protocol conditions: read-out: AChE Inhibition at 10 µM [%]
readout type: inhibition at 10 µM (%)
State just the number; it will be interpreted in %.

Ask: Quick one: give measured inhibition at 10 µM for O=C(NC1CCCCCC1)c1nc2ccc(OCCCNC3CCCCCC3)cc2s1 [Compound 3e]
Result: 7.3

Ask: Quick one: give measured inhibition at 10 µM for O=C(NC1CC1)c1nc2ccc(OCCCCNC3CC3)cc2s1 [Compound 3m]
Result: 13.2

Ask: Quick one: give measured inhibition at 10 µM for CC1CN(CCCOc2ccc3nc(C(=O)N4CCNC(C)C4)sc3c2)CCN1 (stereo not shown) [Compound 4h]
Result: 8.3

Ask: Quick one: give measured inhibition at 10 µM for CCOC(=O)c1nc2ccc(OCCN3CCCC3)cc2s1 [Compound 1c]
Result: 57.2

Ask: Quick one: give measured inhibition at 10 µM for CC1CCCN(CCCOc2ccc3nc(C(=O)N4CCCC(C)C4)sc3c2)C1 (stereo not shown) [Compound 4k]
Result: 34.4

---

Assay system UniProt:Q9Y5N1; read-out recorded as pKi.
Conceptually, pKi converts a concentration in mol/L into minus its log10.

> print(dat)
                                   molecule  measured
1  CC1CCN(CCCOc2ccc3nc(C(=O)N4CCC(C)CC4)sc3c2)CC1 [Compound 4l]      6.37

Ask: Quick one: give measured pKi for O=C(NCc1ccccc1)c1nc2ccc(OCCCNCc3ccccc3)cc2s1 [Compound 4j]
Result: 6.19

Ask: Quick one: give measured pKi for CC(=O)N1CCN(CCCOc2ccc3nc(C(=O)N4CCN(C(C)=O)C(C)C4)sc3c2)CC1C (stereo not drawn) [Compound 4m]
Result: 6.40

Ask: Quick one: give measured pKi for O=C(c1nc2ccc(OCCCN3CCN(CCO)CC3)cc2s1)N1CCN(CCO)CC1 [Compound 4i]
Result: 6.92

Ask: Quick one: give measured pKi for O=C(c1nc2ccc(OCCCCN3CCCCC3)cc2s1)N1CCCCC1 [Compound 3j]
Result: 6.77

Ask: Quick one: give measured pKi for O=C(c1nc2ccc(OCCCCN3CCCC3)cc2s1)N1CCCC1 [Compound 3n]
Result: 7.23

Ask: Quick one: give measured pKi for CC1CC(C)CN(CCCOc2ccc3nc(C(=O)N4CC(C)CC(C)C4)sc3c2)C1 (stereo not drawn) [Compound 4c]
Result: 6.47

Ask: Quick one: give measured pKi for CC1CN(CCCOc2ccc3nc(C(=O)N4CCNC(C)C4)sc3c2)CCN1 (stereo not drawn) [Compound 4h]
Result: 6.33
